- TARGET OR TEST SYSTEM: pooled human IgG (human IgG1, 2, 3 and 4)
MEASUREMENT NAME: Enzyme Activity Endpoint Assay: scIgG

PROTEIN: PRT-553 (protein) MANQEIRYSEETPKTITSIWTKGVTPPTDFIKNEDVLHAPYVANQGWYDITKTFNGKDDLLCGAATAGNMLHWWFDQNKEEIENYLKKHPEKQKINFNGEQMFDVKEAIDTKDSQTDSKLFEYFKDKAFPYLSTKHLGVFPDHVIDMFINGYRLSLTNHGPTPVKRGTKDPRGGIFDAVFTRGDQTKLLTERHDFKEKTLNEISDLIKQELTEGKALGLSHTYANVRINHVINLWGADFNSEGNLEAIYVTDSDSNASIGMKKYYVGVNAAGKVAISAKEIEDDNIGAQVLGLFTLSTGKDIWEQTNLEHHHHHH
RESULT: 764 ng/µL

PROTEIN: PRT-596 (protein) MANQEIRYSEETPSTITSVWTKGVTPPTDFIQNEDVLHAPYIANQGWYDITKTFNGKDDLLCGAATAGNMLHWWFDQNKEQIENYLKKHPEKQKINFNGEQMFDVKEAIDTKDSQTDSALFEYFKDKAFPYLSTKHLGVFPDHVIDMFINGYRLSLTNHGPTPVKRGTKDPRGGIFDAVFTRGDQSKLLTSRHDFKEKTLNEISDLIKKELTEGKALGLSHTYANVRINHVINLWGADFNAEGNLEAIYVTDSDSNASIGMKKYYVGVNSAGKVAISAKEIEGDNIGAQVLGLFTLSTGQDIWNQTNLEHHHHHH
RESULT: 263 ng/µL

PROTEIN: PRT-598 (protein) MANQEIRYSEETPSTITSVWTKGVTPPTDFIQNEDVLHAPYIANQGWYDITKTFNGKDDLLCGAATAGNMLHWWFDQNKEQIENYLKKHPEKQKINFNGEQMFDVKEAIDTKDSQTDSALFEYFKDKAFPYLSTKHLGVFPDHVIDMFINGYRLSLTNHGPTPVKRGTKDPRGGIFDAVFTRGDQSKLLTSRHDFKEKTLNEISDLIKQELTEGKALGLSHTYANVRINHVINLWGADFNAEGNLEAIYVTDSDSNASIGMKKYFVGVNSAGKVAISAKEIEGDNIGAQVLGLFTLSTGQDIWNQTNLEHHHHHH
RESULT: 213 ng/µL

# Enzyme Activity Endpoint Assay: scIgG (protein: PRT-451 (protein) MVTSVWTKGVTPPANFRKIVDGNIAYYHAPYKANQGWYDITKTFNGKDDLLCGAATAGNMLHWWFDQNKDQIEAYLKEHPEKQKINFNGEQMFDVKEAIDTKDDQTNSKLFEYFKEKAFPYLSTKHLGVFPDHVLDMFINGYRLSLTNHGPTPVKEGSKDPRGGIFDAVFTRGDQSKLLTSRHDLKNKTLKEISDLIKQELTEGKALALSHTYANVRINHVINLWGADFDSNGNLEAIYVTDSDSNASIGMKKYFVGVNSAGKVAISAKEIEDDNIGAQVLGLFTLSTGQDIWNQTNLEHHHHHH ) is 0 ng/µL

# Enzyme Activity Endpoint Assay: scIgG (protein: PRT-533 (protein) MANQEIRYSSDSEWANKKVWVYGITPPEEGAWKYSTYYLPWKKEYGWYDCNKRNPTADGMMCWAATASNLLHWWIAQNKEYIDLYGDKYKGPDKINFNGEQMFDVKEYIDPLDKPQESDIFQCFIDKSFADLSTKHEAGYGDAGINWFIHGIIPSSPAHGPTPVKLDYPYNPAGYFKDVFPRGDGVVLLGNNGDFKELSKERFNETIKDALKNKKAIGLSIGPVNVRSSHVVTIWGAEFDENGDVSYIYMADNNDRWGVGCIRYQIVYEEGGTYTCYKTEIIPSDRPIPINRLVTLELGEEYWKQTNLEHHHHHH ) is 0 ng/µL

# Enzyme Activity Endpoint Assay: scIgG (protein: PRT-464 (protein) MVTSVWTKGVTPPANFTQGEDVFHAPYVANQGWYDITKAFDGGDDLLCGAATAGNMLHWWFDQNKDQIERYLKEHPEKQKINFNGEQMFDVKEAIDTKDSQTNSELFNYFKEKAFPYLSTKHLGVFPDHVLDMFINGYRLSLTNHGPTPVKEGSKDPRGGIFDAVFTRGDQSKLLTSRHDLKNKTLKEISDLIKQELTEGKALGLSHTYANVRINHVINLWGADFDSEGNLKAIYVTDSDSNASIGMKKYFVGVNSAGKVAISAKEIKEDNIGAQVLGLFTLSTGQDIWNQTNLEHHHHHH ) is 0 ng/µL

# Enzyme Activity Endpoint Assay: scIgG (protein: PRT-255 (protein) MVTSVWTKGVTPPTNFTYGEDVLHAPYVANQGWYDITKTFNGKDDLLCGAATAGNMLHWWFDQNKEQIENYLKKHPEKQKINFNGEQMFDVKEAIDTKDSQLDSKLFEYFLEKAFPNLSTKHLGVFPDHVIDMFINGYRLSLLNHGPTPVKRGSKDPRGGIFDAVFTRGDQSKLLTNRHDFKEKTLKEISDLIKQELTEGKALGISHTYANVGINHVINLWGADFDAEGNLEAIAVTDSDSNASIGMKKYFVGVNSSGKVAISAKEIEEDNIGAQVLGLFTLSTGQDIWNQTN ) is 525 ng/µL

# Enzyme Activity Endpoint Assay: scIgG (protein: PRT-538 (protein) MANQEIRYSSDSEWANKKVWVYGITPPEEGAWKYSTYYLPWKKEYGWYDCNKRNPTADGMMCWAATASNLLHWWIAQNKEYIDLYGDKYKGPDKINFNGEQMFDVKEYIDPLDKPQESDIFQCFIDKSFADLSTKHEAGYGDEGINWFIHGIIPSSPAHGPTPVKLRKPYNPAGYFKDVFPRGDGVKLLSNNGDFKELGKERFNETIKDALKNKKGIGLSIGPVNVRSGHVVTMWGAEFDENGDVSYIYIADNNDRWGVGCIRYQIVYEEGGTYTCYKTEIINEDRPIPINRLVTLELGEEYWKQTNLEHHHHHH ) is 0 ng/µL
